B1: FAM107A (parent)
chain: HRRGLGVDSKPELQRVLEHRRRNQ

- Variants of: B1
- Assay Details: protein stability index of a GFP-peptide fusion (GPS, HEK-293T) (PSI 1-6); higher = more stable;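 further: lentivirally expressed fusions sorted by FACS into six bins by GFP to DsRed ratio, PSI derived from sequencing read proportions per bin multiplied by bin number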
- Experimental Conditions: c terminus: a fixed tail appended
Record class 1 whenever protein stability index is at 4 or higher; record class 0 when lower.

// below: answered variants
- Alteration: "P11D"
  Category: "class 1"
- Alteration: "L13N"
  Category: "class 1"
- Alteration: "E18D"
  Category: "class 0"

Exercise: Can "R22S" be said to have protein stability index at or above 4?
Solution: class 1

Exercise: For "R15G" then?
Solution: class 1

Exercise: How about this variant: "H19L"
Solution: class 1

Exercise: What do you have for "G6Q" ?
Solution: class 0

Exercise: Also "G6F" , if possible.
Solution: class 0

Exercise: Please answer likewise for "R3E"
Solution: class 1

Exercise: "D8A" ?
Solution: class 0

Exercise: Moving on to the next variant: "S9W"
Solution: class 0

Where do the numbers come from? From the supplement of paper PMC10567573.
